From: ChEMBL document CHEMBL2034842

PROCEDURE_TEXT: Cytotoxicity against human Hep2 cells assessed as cell survival fraction at 5 ug/mL after 24 hrs by trypan blue exclusion method
Format: cell-based
CONDITION_SUMMARY: HEp-2 cells, read-out: Survival
MEASURED_ENDPOINT: viability at 24 h, 5 ug/mL (%)
One number for each entry, in %.

# count of solved cases: 4
CCCCC/C(C)=N/Nc1nc(-c2ccc(I)cc2)cs1 | 90
CCC(CC)=NNc1nc(-c2ccc(I)cc2)cs1 | 80
CCC/C(C)=N/Nc1nc(-c2ccc(I)cc2)cs1 | 65
C/C(=N\Nc1nc(-c2ccc(I)cc2)cs1)c1ccncc1 | 66

Provide each entry's viability at 24 h, 5 ug/mL from the list below.
1. Ic1ccc(-c2csc(N/N=C/c3cccc4ccccc34)n2)cc1
2. Clc1ccccc1C(c1ccccc1)(c1ccccc1)n1ccnc1
3. CC1CCC/C1=N\Nc1nc(-c2ccc(I)cc2)cs1 (stereo not drawn)

RESULT:
80
70
67

QUERY: Can you look up the measured viability at 24 h, 5 ug/mL of CC1CC/C(=N\Nc2nc(-c3ccc(I)cc3)cs2)C1 (stereo not drawn) for me?
RESULT: 83
